compounds and their reported Cmax at […]
TEST_METHOD_NOTES: Cmax in po dosed rat at NOAEL measured after 7 days
Assay type: ADME, organism-based
Set-up: route oral
CONDITIONS_USED: in vivo
# answer = value followed by unit

ENTRY_SMILES	OBSERVED_VALUE
COc1nc(N(CC(C)(C)F)c2cc(Cl)c(F)cc2F)cnc1C(=O)[C@H]1C[C@@H]1C(=O)O	349 µM

Would you mind telling me what Cmax at […] value was observed for `COc1cc(N(CC2CC2)c2ccc(Cl)c3ccccc23)cnc1C(=O)[C@H]1C[C@@H]1C(=O)O` ?
47 µM

---

compounds and their reported pIC50
TEST_METHOD_NOTES: Displacement of [3H]-GABA/[3]-muscimol from GABA gated chloride channel in Sprague-Dawley rat cortical synoptic membranes by liquid scintillation analysis
Entry type: numeric. Quantity: pIC50, the -log10 of concentration in molar units.

ENTRY_SMILES	pIC50
COc1cc(N(CC2CC2)c2ccc(F)c(Cl)c2)cnc1C(=O)[C@H]1C[C@@H]1C(=O)O	5.52
CCCN(c1cccc(C(F)(F)F)c1)c1cnc(C(=O)[C@H]2C[C@@H]2C(=O)O)c(OC)c1	4.72

Now consider a different compound.
Would you mind telling me what pIC50 value was observed for `CCN(c1cnc(C(=O)[C@H]2C[C@@H]2C(=O)O)c(OC)c1)c1ccc(F)c2ccccc12` ?
5.54

---

molecules and their reported hepatocyte CLint at 1 µM
TEST_METHOD_NOTES: Intrinsic clearance in human hepatocytes at 1 uM assessed as per million cells after 2 to 60 mins by LC-MS/MS analysis
Format: ADME, cell-based, Hepatocyte
CONDITIONS_USED: read-out: CLH
Write the value in µL/min/1e6 cells as a bare number.

MOLECULE	UNITS_TEXT	hepatocyte CLint at 1 µM
COc1cc(N(CC2CC2)c2ccccc2)cnc1C(=O)[C@H]1C[C@@H]1C(=O)O	µL/min/1e6 cells	3

Would you mind telling me what hepatocyte CLint at 1 µM value was observed for `COc1cc(N(CC2CC2)c2ccc(Cl)c3ccccc23)cnc1C(=O)[C@H]1C[C@@H]1C(=O)O` ?
5

Would you mind telling me what hepatocyte CLint at 1 µM value was observed for `COc1cc(N(Cc2ccc(F)cc2)c2cccc(C(F)(F)F)c2)cnc1C(=O)[C@H]1C[C@@H]1C(=O)O` ?
4.2

Would you mind telling me what hepatocyte CLint at 1 µM value was observed for `CCCN(c1cccc(C(F)(F)F)c1)c1cnc(C(=O)[C@H]2C[C@@H]2C(=O)O)c(OC)c1` ?
7.2

Would you mind telling me what hepatocyte CLint at 1 µM value was observed for COc1cc(N(CC2CC2)c2ccc(Cl)cc2)cnc1C(=O)[C@@H]1C[C@H]1C(=O)O (relative stereo) ?
1.8

Would you mind telling me what hepatocyte CLint at 1 µM value was observed for `COc1cc(N(CC(C)C)c2ccc(F)c3ccccc23)cnc1C(=O)[C@H]1C[C@@H]1C(=O)O` ?
56

---

molecules and their reported fraction unbound
TEST_METHOD_NOTES: Fraction unbound in Beagle dog plasma by equilibrium dialysis based LC-MS analysis
Type: ADME, cell-free, Canis lupus familiaris
Give only the figure.

ENTRY_SMILES	OBSERVED_VALUE
COc1cc(N(CC2CC2)c2ccc(Cl)c3ccccc23)cnc1C(=O)[C@H]1C[C@@H]1C(=O)O	0.0021

Now consider a different molecule.
Would you mind telling me what fraction unbound value was observed for `COc1nc(N(CC(C)(C)F)c2cc(Cl)c(F)cc2F)cnc1C(=O)[C@H]1C[C@@H]1C(=O)O` ?
0.059

---

TEST_METHOD_NOTES: Clearance in Han Wistar rat at 0.5 mg/kg, iv or 1 mg/kg, po after 24 hrs
Assay type: ADME, organism-based
CONDITIONS_USED: in vivo
REPORTED_PROPERTY: clearance (mL/min/kg)
Write the value in mL/min/kg as a bare number.

Would you mind telling me what clearance value was observed for `COc1cc(N(CC2CC2)c2ccc(Cl)c3ccccc23)cnc1C(=O)[C@H]1C[C@@H]1C(=O)O` ?
12

Would you mind telling me what clearance value was observed for `COc1nc(N(CC(C)(C)F)c2cc(Cl)c(F)cc2F)cnc1C(=O)[C@H]1C[C@@H]1C(=O)O` ?
2.3

---

TEST_METHOD_NOTES: Volume of distribution at steady state in Beagle dog at 1 mg/kg, iv infusion or 2 mg/kg, po via gavage after 48 hrs
Type: ADME, organism-based, Canis lupus familiaris
CONDITIONS_USED: in vivo, read-out: Vdss
compounds and their reported Vd
Write the value in L/kg as a bare number.

COMPOUND	UNITS_TEXT	Vd
COc1nc(N(CC(C)(C)F)c2cc(Cl)c(F)cc2F)cnc1C(=O)[C@H]1C[C@@H]1C(=O)O [AZD-9898]	L/kg	1

Now consider a different compound.
Would you mind telling me what Vd value was observed for `COc1cc(N(CC2CC2)c2ccc(Cl)c3ccccc23)cnc1C(=O)[C@H]1C[C@@H]1C(=O)O` ?
1.1

---

TEST_METHOD_NOTES: Effective half life in Beagle dog at 1 mg/kg, iv infusion or 2 mg/kg, po via gavage after 48 hrs
Assay type: ADME, organism-based, Canis lupus familiaris
CONDITIONS_USED: in vivo, read-out: t1/2eff (converted)
REPORTED_PROPERTY: half-life (h)
Write the value in h as a bare number.

ENTRY_SMILES	UNITS_TEXT	half-life
COc1nc(N(CC(C)(C)F)c2cc(Cl)c(F)cc2F)cnc1C(=O)[C@H]1C[C@@H]1C(=O)O	h	6.1

Now consider a different compound.
Would you mind telling me what half-life value was observed for `COc1cc(N(CC2CC2)c2ccc(Cl)c3ccccc23)cnc1C(=O)[C@H]1C[C@@H]1C(=O)O` ?
4.8

---

The following compounds each carry a recorded IC50 for UniProt Q16873.
Sequence (Q16873 whole entry): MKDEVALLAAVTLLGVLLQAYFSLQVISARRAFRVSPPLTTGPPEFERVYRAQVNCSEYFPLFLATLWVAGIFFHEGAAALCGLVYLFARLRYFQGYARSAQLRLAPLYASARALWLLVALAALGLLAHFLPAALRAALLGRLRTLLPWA
Write the value in nM as a bare number.

// known answers, use as guide
ENTRY_SMILES	OBSERVED_VALUE
COc1nc(N(CC(C)C)c2cc(C(F)(F)F)ccc2F)cnc1C(=O)[C@H]1C[C@@H]1C(=O)O	3.5
COc1cc(N(CC(C)C)c2cc(C(F)(F)F)ccc2F)cnc1C(=O)[C@H]1C[C@@H]1C(=O)O	6.8
COc1nc(N(CC(C)(C)F)c2cc(C(F)(F)F)ccc2F)cnc1C(=O)[C@H]1C[C@@H]1C(=O)O	7.8

Now consider a different compound.
Would you mind telling me what IC50 value was observed for `COc1nc(N(CC(C)C)c2cc(Cl)c(F)cc2F)cnc1C(=O)[C@H]1C[C@@H]1C(=O)O` ?
4.1

---

TEST_METHOD_NOTES: Volume of distribution at steady state in cynomolgus monkey at 1 mg/kg, iv or 2 mg/kg, po after 48 hrs
Type: ADME, organism-based, Macaca fascicularis
CONDITIONS_USED: in vivo, read-out: Vdss
REPORTED_PROPERTY: Vd (L/kg)
Write the value in L/kg as a bare number.

Would you mind telling me what Vd value was observed for `COc1nc(N(CC(C)(C)F)c2cc(Cl)c(F)cc2F)cnc1C(=O)[C@H]1C[C@@H]1C(=O)O` ?
0.6

---

TEST_METHOD_NOTES: Octanol/Sodium phosphate buffer partition coefficient, log D of compound at pH 7.4 at 1 mg incubated for overnight under shaking condition by LC-MS/MS analysis
Assay type: physicochemical
compounds and their reported logD
Give only the figure.

// known answers, use as guide
COMPOUND	OBSERVED_VALUE
COc1cc(N(CC(C)(C)F)c2cc(Cl)c(F)cc2F)cnc1C(=O)[C@H]1C[C@@H]1C(=O)O	0.8
COc1cc(N(CC2CC2)c2ccc(F)c3ccccc23)cnc1C(=O)[C@H]1C[C@@H]1C(=O)O	1.9
COc1cc(N(CC(C)(C)O)c2cccc(C(F)(F)F)c2)cnc1C(=O)[C@H]1C[C@@H]1C(=O)O	0
COc1cc(N(CC2CC2)c2ccc(Cl)cc2)cnc1C(=O)[C@@H]1C[C@H]1C(=O)O (relative stereo)	1.3
COc1cc(N(CC(C)(C)F)c2cc(C(F)(F)F)ccc2F)cnc1C(=O)[C@H]1C[C@@H]1C(=O)O	0.8
COc1cc(N(CC2CC2)c2ccc(Cl)c3ccccc23)cnc1C(=O)[C@H]1C[C@@H]1C(=O)O	2.4
COc1cc(N(CC2CC2)c2cc(C(F)(F)F)ccc2F)cnc1C(=O)[C@H]1C[C@@H]1C(=O)O	1.2

Would you mind telling me what logD value was observed for `CCCN(c1cnc(C(=O)[C@H]2C[C@@H]2C(=O)O)c(OC)c1)c1ccc(F)c2ccccc12` ?
1.8

---

TEST_METHOD_NOTES: Displacement of [3H]-GABA/[3]-muscimol from GABA gated chloride channel in Sprague-Dawley rat cortical synoptic membranes by liquid scintillation analysis
pIC50: −log10 of the molar value.
Where pIC50 equals or exceeds 5, the correct label is class 1; where it does not, the label is class 0.

ENTRY_SMILES	ASSIGNED_CATEGORY
CCN(c1cccc(C(F)(F)F)c1)c1cnc(C(=O)[C@H]2C[C@@H]2C(=O)O)c(OC)c1	class 0
COc1cc(N(CC2CC2)c2cc(Cl)c(F)cc2F)cnc1C(=O)[C@H]1C[C@@H]1C(=O)O	class 1
COc1cc(N(CC2CC2)c2ccc(Cl)c3ccccc23)cnc1C(=O)[C@H]1C[C@@H]1C(=O)O	class 1

Decide: pIC50 of `COc1cc(N(CC(C)(C)F)c2cccc(C(F)(F)F)c2)cnc1C(=O)[C@H]1C[C@@H]1C(=O)O` >= 5?
class 0

Decide: pIC50 of `COc1cc(N(CC2CC2)c2ccc(F)c3ccccc23)cnc1C(=O)[C@H]1C[C@@H]1C(=O)O` >= 5?
class 1

Decide: pIC50 of `CCCN(c1cnc(C(=O)[C@H]2C[C@@H]2C(=O)O)c(OC)c1)c1ccc(F)c2ccccc12` >= 5?
class 1

Hey, just so you know, these numbers are from ChEMBL document CHEMBL4376816.
